Entries annotated with measured TGI
system: UACC-62 melanoma; assay: NCI tumour cell line growth inhibition, 48 h
experimental.readout: TGI

* O=C1/C(=C/c2ccccc2)CN(C(=O)CCN2CCOCC2)C/C1=C\c1ccccc1 | 3.52 µM
* COc1cccc(N2C(=O)C3c4[nH]c5ccccc5c4C4CCCC4C3C2=O)c1 (stereo not drawn) | > 10 µM
* Cc1cc([N+](=O)[O-])c(NS(=O)(=O)c2cccc(C(=O)O)c2)cc1-c1cccnc1 | > 100 µM
* CC1C(=O)N(c2ccccc2)NC12CCCc1ccccc12 (stereo not drawn) | > 100 µM
* CCCCCCCCCCCCCCCC(=O)OCC1OC(n2cc(F)c(=O)[nH]c2=O)C(N)C(O)C1O (stereo not drawn) | 30 µM
* C/C(O)=C(/C=N/C(=S)Nc1ccc(S(N)(=O)=O)cc1)C(=O)Nc1ccccc1C | > 100 µM
* CSCCC(N)C(=O)NCCNc1ccc(NCCNC(=O)C(N)CCSC)c2c1C(=O)c1ccccc1C2=O (stereo not drawn) | 2.51 µM
* CCOC(=O)CCC(NC(=O)OCc1ccccc1)C(=O)NC(CCC(=O)OCC)C(=O)NC(CCC(=O)OCC)C(=O)NC(CCC(=O)OCC)C(=O)NC(CCC(=O)OCC)C(=O)NC(CCC(=O)OCC)C(=O)NC(CCC(=O)OCC)C(=O)OCC (stereo not drawn) | > 100 µM

###

Entries annotated with measured TGI
system: U251 CNS; test: NCI tumour cell line growth inhibition, 48 h
experimental.readout: TGI

* CN(C)C(=O)OC1C(=O)N(C)c2ccc(Cl)cc2C2(c3ccccc3)N1C2(Cl)Cl (stereo not drawn) | > 100 µM
* NCCCN(CCCN(C(=O)Nc1ccccc1)c1ccccc1)C(=O)Nc1ccccc1 | > 100 µM
* O=c1cc(N2CCCC2)[nH]c(=O)n1Cc1ccccc1 | > 100 µM
* CN1CCN(C(=O)C(C)(C)c2ccc(C(=O)Nc3cn4cc(-c5ccncc5)ccc4n3)cc2)CC1 | > 100 µM
* CC(CN(C)C)/C(=N\Nc1ccccc1)c1ccccc1 (stereo not drawn) | 5.88 µM
* O=C1C(c2ccccc2)=C(O)c2cccc3cccc1c23 | > 100 µM
* NC(=O)NNc1nc(-c2ccccc2)cs1 | > 100 µM
* COc1cc2ccc(=O)oc2cc1O | 455 µM
* COc1ccc(CC(N)c2ccc(OC)cc2)cc1 (stereo not drawn) | > 100 µM
* C[C@H]1CC[C@@]2(NC1)O[C@H]1C[C@H]3[C@@H]4CC[C@H]5C[C@@H](O)CC[C@]5(C)[C@H]4CC[C@]3(C)[C@H]1[C@@H]2C | 33.6 µM
* CC1=C(c2cccc(O)c2)[C@H](c2ccc(OCCN3CC(CF)C3)cc2)Oc2ccc(O)cc21 | 18.1 µM
* N#CC1(C#N)NC(c2cccs2)C(C#N)(C#N)NC1c1cccs1 (stereo not drawn) | 64.5 µM
* CSCCC(N)C(=O)NCCNc1ccc(NCCNC(=O)C(N)CCSC)c2c1C(=O)c1ccccc1C2=O (stereo not drawn) | 2.44 µM
* Cc1cc(C)nc(SC2=C(Nc3ccc(C)c(Cl)c3)C(=O)N(Cc3ccccc3)C2=O)n1 | > 160 µM
* COc1ccc(C/C(C)=C(/c2ccc(OCCN3CCCCC3)cc2)c2ccc(OC(=O)NCc3ccccc3)cc2)cc1 | 0.791 µM
* CCCCCCCCCCCCCCCC(=O)OCC1OC(n2cc(F)c(=O)[nH]c2=O)C(N)C(O)C1O (stereo not drawn) | 32.4 µM
* O=C1NC(=O)C(C(CC(=O)c2ccc([N+](=O)[O-])cc2)c2ccccc2)C(=O)N1 (stereo not drawn) | > 100 µM
* CSC1=C(N)C(=O)c2[nH]cc(CO)c2C1=N | 0.347 µM
* O=[N+]([O-])c1ccc(-n2nnc(C3=NCCN3)c2-c2ccccc2)cc1 | > 100 µM
* CC1(C)C2CCC13C(=O)C1OC3(C2)C2C(=O)c3ccccc3C(=O)C12 (stereo not drawn) | > 100 µM
* CCCCC(=O)c1c(O)nc2sccn2c1=O | > 10 µM
* Cc1c(Cl)cccc1C(=O)Nc1nc2c(s1)CN(C(=O)c1ccc(C(F)(F)F)cc1)CC2 | > 35.6 µM
* Cc1ccccc1C1OC(=O)c2ccc3ccccc3c21 (stereo not drawn) | 13.3 µM
* C[C@@H]1[C@H](C)N1CC(O)Cn1ccnc1[N+](=O)[O-] (stereo partly drawn) | > 100 µM
* CCOC(=O)CCC(NC(=O)OCc1ccccc1)C(=O)NC(CCC(=O)OCC)C(=O)NC(CCC(=O)OCC)C(=O)NC(CCC(=O)OCC)C(=O)NC(CCC(=O)OCC)C(=O)NC(CCC(=O)OCC)C(=O)NC(CCC(=O)OCC)C(=O)OCC (stereo not drawn) | > 100 µM
* O=C(/C=C/Sc1cc(C(F)(F)F)cc(C(F)(F)F)c1)c1ccc(Cl)cc1 | 16.2 µM
* CN(C)CCN1C(=O)c2c(c3c4ccccc4n4c3c3c2c2ccccc2n3C2CC(O)C(O)C4(C)O2)C1=O (stereo not drawn) | 7.29 µM
* CC(NC(=O)C(NC(=O)CNC(=O)OC(C)(C)C)C(C)C)C(=O)Oc1c(Cl)c(Cl)c(Cl)c(Cl)c1Cl (stereo not drawn) | 48.3 µM
* O=S(Nc1ccccc1)c1ccc(N2CCOCC2)cc1 (stereo not drawn) | > 100 µM
* OCCO/N=C1\C(c2c(O)[nH]c3ccccc23)=Nc2ccccc21 | > 100 µM
* COc1ccc2c(c1)NC1=C(C(=O)OC1)C2c1cc(OC)c2c(c1)OCO2 (stereo not drawn) | > 100 µM
* CC1(C)N/C(=C\C=O)C(C)(C)N1O | > 100 µM
* O=C1C=CC(=O)C2=C1[C@@H](O)C1CC=CC3C(=O)O[C@@H]2C31 (stereo partly drawn) | > 100 µM
* COc1cc(OC)c(C/C=C/c2ccccc2)cc1O | 30.4 µM
* CCOC(=O)c1nc2ccc(C(F)(F)F)cc2nc1Oc1cc(OC)c(OC)c(OC)c1 | > 100 µM
* COC(OC)[C@@H]1OC[C@H](n2cnc3c(N)ncnc32)[C@H]1O | > 100 µM
* COc1cccc(-c2c[nH]c3c(N/N=C/c4ccncc4)ncnc23)c1 | 7.94 µM
* O=C1CCCCC/C1=C\c1ccc([N+](=O)[O-])cc1 | > 100 µM

Attribution: PubChem BioAssay (NCI)
